# assay_target: TBK1 (Homo sapiens (Human), UniProt Q9UHD2)
# Sequence (Q9UHD2 whole entry): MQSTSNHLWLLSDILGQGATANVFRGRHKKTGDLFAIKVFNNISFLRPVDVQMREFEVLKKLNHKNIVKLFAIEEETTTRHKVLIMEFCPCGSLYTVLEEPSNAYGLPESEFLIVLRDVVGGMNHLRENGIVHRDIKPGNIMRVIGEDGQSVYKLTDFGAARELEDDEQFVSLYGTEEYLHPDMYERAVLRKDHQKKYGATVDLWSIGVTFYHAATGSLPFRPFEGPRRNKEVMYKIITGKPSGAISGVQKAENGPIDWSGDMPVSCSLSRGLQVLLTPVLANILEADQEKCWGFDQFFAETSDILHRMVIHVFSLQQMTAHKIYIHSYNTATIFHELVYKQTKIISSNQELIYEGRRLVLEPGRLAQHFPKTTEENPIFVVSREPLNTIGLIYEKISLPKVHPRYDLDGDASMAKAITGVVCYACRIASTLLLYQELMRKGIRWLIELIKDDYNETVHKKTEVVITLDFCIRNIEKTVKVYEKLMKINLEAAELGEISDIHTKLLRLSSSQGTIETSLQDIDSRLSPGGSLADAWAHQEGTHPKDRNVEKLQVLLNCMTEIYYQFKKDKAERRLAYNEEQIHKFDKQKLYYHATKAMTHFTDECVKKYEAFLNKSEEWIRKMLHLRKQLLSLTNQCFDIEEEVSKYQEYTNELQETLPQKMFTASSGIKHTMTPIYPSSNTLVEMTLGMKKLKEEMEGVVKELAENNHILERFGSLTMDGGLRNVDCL
# protocol_details: TBK1 TR-FRET enzymatic assay
# IC50 per entry
Report as a plain number; the unit nM is understood.

sample_smiles	measured_parameter	measured_value
C[C@H](O)C(=O)N1CC[C@H](Oc2ccc(-c3ncnc(Nc4ccc(N5CCNCC5)cc4)n3)cc2C#N)[C@H](F)C1	IC50	1
C[C@H](O)C(=O)N1CC[C@H](Oc2ccc(-c3ncnc(Nc4ccc(O[C@H]5CCN(C)C[C@H]5F)cc4)n3)cc2C#N)[C@H](F)C1	IC50	3

Now turn to the next compound.
Ask | Which IC50 is reported for this compound? C[C@H](O)C(=O)N1CCC[C@H](Oc2ccc(-c3ncnc(Nc4ccc(N5CCN(C6COC6)CC5)cc4)n3)cc2C#N)C1
Reply | 37

====

# assay_target: IKKε (Homo sapiens (Human), UniProt Q14164)
# Sequence (Q14164 whole entry): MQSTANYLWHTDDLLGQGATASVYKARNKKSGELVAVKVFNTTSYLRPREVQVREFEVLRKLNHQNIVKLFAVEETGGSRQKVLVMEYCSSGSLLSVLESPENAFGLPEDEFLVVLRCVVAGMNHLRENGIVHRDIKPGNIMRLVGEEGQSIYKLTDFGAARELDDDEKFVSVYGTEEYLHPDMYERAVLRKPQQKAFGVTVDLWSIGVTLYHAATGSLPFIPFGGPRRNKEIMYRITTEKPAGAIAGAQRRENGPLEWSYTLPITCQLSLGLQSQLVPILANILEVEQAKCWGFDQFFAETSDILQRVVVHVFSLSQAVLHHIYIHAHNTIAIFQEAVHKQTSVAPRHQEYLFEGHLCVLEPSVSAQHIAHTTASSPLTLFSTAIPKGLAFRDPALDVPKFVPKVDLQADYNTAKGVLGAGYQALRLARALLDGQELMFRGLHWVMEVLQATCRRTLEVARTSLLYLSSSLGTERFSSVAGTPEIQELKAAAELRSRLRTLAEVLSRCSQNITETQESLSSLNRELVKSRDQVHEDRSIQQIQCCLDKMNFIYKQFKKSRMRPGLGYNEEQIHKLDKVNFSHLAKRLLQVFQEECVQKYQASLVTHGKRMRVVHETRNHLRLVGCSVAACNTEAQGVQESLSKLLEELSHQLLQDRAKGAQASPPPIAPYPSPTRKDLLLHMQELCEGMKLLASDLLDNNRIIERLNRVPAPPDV
# protocol_details: IKKε TR-FRET enzymatic assay
# Format: biochemical
# condition_notes: TR-FRET, 2×Km ATP; geometric mean of minimum four determinations; read-out: IKKe IC50
Measured pIC50 by item
Worth noting: pIC50 values are minus log10 of concentrations stated in mol/L.

molecule	measured_parameter	measured_value
CN1C(=O)CC[C@H]1C(=O)N1CC[C@H](Oc2ccc(-c3ncnc(Nc4ccc(N5CCN(C6COC6)CC5)c(F)c4)n3)cc2C#N)[C@H](F)C1 [Example 408]	pIC50	6.92
Cc1cc(Nc2ncnc(-c3ccc(O[C@H]4CCN(C(=O)[C@H](C)O)C[C@H]4F)c(C#N)c3)n2)ccc1C1CCN(C)CC1 [Example 487]	pIC50	9.00
N#CCC(=O)Nc1ccc(-c2ncnc(Nc3ccc(N4CCN(C5COC5)CC4)cc3)n2)cc1C#N [Example 494]	pIC50	7.54
N#Cc1cc(-c2ncnc(Nc3cnn(C(F)F)c3)n2)ccc1O[C@H]1CCN(C(=O)[C@@H](O)CO)C[C@H]1F [Example 456]	pIC50	8.15
Cc1nc(C)c(Nc2ncnc(-c3ccc(O[C@H]4CCN(C(=O)[C@H](C)O)C[C@H]4F)c(C#N)c3)n2)s1 [Example 571]	pIC50	7.96

# context switch: different molecule, same pIC50
Ask | Any idea what its pIC50 is? The molecule is N#Cc1cc(-c2ncnc(Nc3ccc(N4CCN(C5COC5)CC4)cc3)n2)ccc1O[C@H]1CCN(C(=O)[C@@H]2CCCO2)C[C@H]1F [Example 504]
Reply | 8.30

====

# assay_target: hJAK2 (Homo sapiens (Human), UniProt O60674)
# Sequence (O60674 whole entry): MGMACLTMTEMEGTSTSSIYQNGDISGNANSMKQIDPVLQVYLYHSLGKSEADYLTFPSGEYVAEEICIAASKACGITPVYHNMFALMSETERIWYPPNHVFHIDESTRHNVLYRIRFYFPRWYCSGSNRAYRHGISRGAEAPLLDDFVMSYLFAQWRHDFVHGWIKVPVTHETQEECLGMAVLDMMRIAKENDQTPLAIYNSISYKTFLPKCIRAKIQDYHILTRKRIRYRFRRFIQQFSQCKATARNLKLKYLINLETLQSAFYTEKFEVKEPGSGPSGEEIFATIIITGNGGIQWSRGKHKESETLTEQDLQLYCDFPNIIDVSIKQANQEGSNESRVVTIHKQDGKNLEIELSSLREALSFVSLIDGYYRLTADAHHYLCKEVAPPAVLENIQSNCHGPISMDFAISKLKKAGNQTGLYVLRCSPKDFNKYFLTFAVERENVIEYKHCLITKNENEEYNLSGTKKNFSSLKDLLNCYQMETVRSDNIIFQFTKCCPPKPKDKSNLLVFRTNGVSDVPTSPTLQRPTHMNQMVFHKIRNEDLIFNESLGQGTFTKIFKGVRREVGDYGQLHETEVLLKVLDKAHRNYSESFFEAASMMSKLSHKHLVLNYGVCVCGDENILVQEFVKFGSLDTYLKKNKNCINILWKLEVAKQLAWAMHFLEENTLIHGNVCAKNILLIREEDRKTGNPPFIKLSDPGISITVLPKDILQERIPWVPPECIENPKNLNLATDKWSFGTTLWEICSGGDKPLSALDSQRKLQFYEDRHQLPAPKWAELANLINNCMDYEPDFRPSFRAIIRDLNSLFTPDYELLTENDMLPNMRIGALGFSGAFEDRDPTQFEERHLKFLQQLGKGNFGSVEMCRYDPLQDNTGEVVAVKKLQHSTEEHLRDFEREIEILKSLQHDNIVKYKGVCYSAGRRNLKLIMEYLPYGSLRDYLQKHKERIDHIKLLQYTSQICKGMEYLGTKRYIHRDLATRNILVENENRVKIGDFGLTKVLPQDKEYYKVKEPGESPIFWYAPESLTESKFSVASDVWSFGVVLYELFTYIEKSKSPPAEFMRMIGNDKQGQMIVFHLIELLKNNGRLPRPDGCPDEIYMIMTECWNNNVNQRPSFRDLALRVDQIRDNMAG
measured_parameter: log10 IC50 (log10 of the value in µM)
Units before log transform: µM; reported quantity: IC50; transform: log10.

Study these solved cases before continuing.
compound	log10 IC50
N#Cc1cc(-c2ncnc(Nc3ccc(N4CCN(C5COC5)CC4)cc3)n2)ccc1OCC1CCNC(=O)C1 (stereo not shown)	-0.02
N#Cc1cc(-c2ncnc(Nc3ccc(C(=O)C(F)(F)F)cc3)n2)ccc1OC1CCOCC1	-0.38
N#CCC(=O)N1CC[C@H](Oc2ccc(-c3ncnc(Nc4ccc(N5CCN(C6COC6)CC5)c(F)c4)n3)cc2C#N)[C@H](F)C1	-0.34
COc1cc(Nc2ncnc(-c3ccc(O[C@H]4CCN(C(=O)[C@@H]5CCC(=O)N5)C[C@H]4F)c(C#N)c3)n2)ccc1N1CCN(C2COC2)CC1	-1.36
CC(C)n1cc(Nc2ncnc(-c3ccc(O[C@H]4CCN(C(=O)[C@@H](O)CO)C[C@H]4F)c(C#N)c3)n2)cn1	-0.45
N#CCC(=O)N1CC[C@H](Oc2ccc(-c3ncnc(Nc4ccc(N5CCO[C@@H](CO)C5)cc4)n3)cc2C#N)[C@H](F)C1	-0.77

Alright, here's another compound for you.
Ask | Given COc1ccc(-c2ncnc(Nc3ccc(N4CCN(C5COC5)CC4)cc3)n2)cc1C#N , state its recorded log10 IC50.
Reply | -0.48

====

# assay_target: TBK1 (Homo sapiens (Human))
# protocol_details: TBK1 TR-FRET enzymatic assay
measured_parameter: pIC50
Remember, pIC50 is on a log scale: it is -log10 of the molar concentration.

Examples with answers:
molecule	pIC50
C[C@H](O)C(=O)N1CC[C@H](Oc2ccc(-c3ncnc(Nc4ccc(N5CCN(C6CCOCC6)CC5)cc4)n3)cc2C#N)[C@H](F)C1	8.70
C[C@H]1OC(=O)N[C@@H]1C(=O)N1CC[C@H](Oc2ccc(-c3ncnc(Nc4ccc(N5CCN(C6COC6)CC5)cc4)n3)cc2C#N)[C@H](F)C1	8.00
Cc1nn(C)c2cc(Nc3ncnc(-c4ccc(O[C@H]5CCN(C(=O)CO)C[C@H]5F)c(C#N)c4)n3)ccc12	8.52
C[C@H](O)C(=O)N1CC[C@H](Oc2ccc(-c3ncnc(Nc4ccc5cnn(C)c5c4)n3)cc2C#N)[C@H](F)C1	8.15
C[C@H](O)C(=O)N1CC[C@H](Oc2ccc(-c3ncnc(Nc4ccc(N5CCO[C@@H](CO)C5)cc4)n3)cc2C#N)[C@H](F)C1	8.52

Ask | Which pIC50 reading was recorded for the molecule N#Cc1cc(-c2ncnc(Nc3ccc(N4CCN(C(=O)CO)CC4)cc3)n2)ccc1OC1CCOCC1 ?
Reply | 9.00

Ask | Entry to check: N#Cc1cc(-c2ncnc(Nc3ccc(N4CCN(C5COC5)CC4)cc3)n2)ccc1OC1CNC(=O)C(F)(F)C1 (centres unmarked)
Reply | 7.32

Ask | Same for CS(=O)(=O)C1CN(c2ccc(-c3ncnc(Nc4ccc(N5CCN(C6COC6)CC5)cc4)n3)cc2C#N)C1
Reply | 7.55

Ask | Follow-up entry: N#Cc1cc(-c2ncnc(Nc3ccc(N4CCN(C5COC5)CC4)cc3)n2)ccc1OC1CCOCC1
Reply | 8.70

Ask | Proceed to CC1CN(C(=O)CO)CCC1Oc1ccc(-c2ncnc(Nc3ccc(N4CCN(C5COC5)CC4)cc3)n2)cc1C#N (centres unmarked)
Reply | 8.52

====

# assay_target: TBK1 (Homo sapiens (Human), UniProt Q9UHD2)
# protocol_details: TBK1 TR-FRET enzymatic assay;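 also: phosphorylation of a biotinylated Ser/Thr peptide by purified full-length recombinant TBK1, read by TR-FRET after 240 min at 25 °C, IC50 is the geometric mean of at least four runs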
The entries below come with measured pIC50 values attached.
// pIC50: -log10(molar conc.)

compound	pIC50
COc1cc(Nc2ncnc(-c3ccc(O[C@H]4CCN(C(=O)[C@@H]5CCC(=O)N5)C[C@H]4F)c(C#N)c3)n2)ccc1N1CCN(C2COC2)CC1	8.70

Ask | Look up pIC50 for this compound: Cn1cc(C(O)C(=O)N2CC[C@H](Oc3ccc(-c4ncnc(Nc5ccc(N6CCN(C7COC7)CC6)cc5)n4)cc3C#N)[C@H](F)C2)cn1 (stereo partly drawn)
Reply | 7.52

Ask | Then Cc1cc(Nc2ncnc(-c3ccc(O[C@H]4CCN(C(=O)[C@H](C)O)C[C@H]4F)c(C#N)c3)n2)ccc1C1CCN(C=O)CC1 ?
Reply | 8.70

====

Notes on pIC50 obtained with hJAK2 (Homo sapiens (Human)).
pIC50: −log10 of the molar value.

compound	assay_target	measured_value
CC1(C)C(=O)Nc2ccc(Nc3ncnc(-c4ccc(OC5CCOCC5)c(C#N)c4)n3)cc21	hJAK2 (Homo sapiens (Human))	6.27
N#Cc1cc(-c2ncnc(Nc3ccc(N4CCN(C5COC5)CC4)cc3)n2)ccc1OC1CCN(C(=O)c2ncc[nH]2)CC1(F)F (stereo not drawn)	hJAK2 (Homo sapiens (Human))	6.61
N#Cc1cc(-c2ncnc(Nc3ccc(N4CCN(C5COC5)CC4)cc3)n2)ccc1O[C@H]1CCN(C(=O)N2CCCC2)C[C@H]1F	hJAK2 (Homo sapiens (Human))	≤ 6.00
C[C@H](O)C(=O)N1CC[C@H](Oc2ccc(-c3ncnc(Nc4cnc(N5CCN(C6COC6)CC5)c(F)c4)n3)cc2C#N)[C@H](F)C1	hJAK2 (Homo sapiens (Human))	≤ 6.00
C[C@H](O)C(=O)N1CCC(Oc2ccc(-c3ncnc(Nc4ccc(N5CCO[C@@H](CO)C5)cc4)n3)cc2C#N)CC1	hJAK2 (Homo sapiens (Human))	≤ 6.00

Ask | Can you share its pIC50? I mean this compound: C[C@H](O)C(=O)N1CC[C@H](Oc2ccc(-c3ncnc(Nc4ccc(C5CCN(C6COC6)CC5)c(F)c4)n3)cc2C#N)[C@H](F)C1
Reply | ≤ 6.00

====

compounds and their reported IC50
# assay_target: TBK1 (Homo sapiens (Human))
# protocol_details: TBK1 TR-FRET enzymatic assay
// return numeric value only (unit: nM, not printed)

Use these answered entries as a reference point.
compound	measured_parameter	measured_value
C[C@H](O)C(=O)N1CC[C@H](Oc2ccc(-c3ncnc(Nc4ccnc(C(C)(C)O)c4)n3)cc2C#N)[C@H](F)C1 [Example 386]	IC50	4
COc1cc(Nc2ncnc(-c3ccc(O[C@H]4CCN(C(=O)[C@@H](O)CO)CC4(F)F)c(C#N)c3)n2)ccc1N1CCN(C2COC2)CC1 [Example 577]	IC50	2
C[C@H]1C[C@H](Oc2ccc(-c3ncnc(Nc4ccc(N5CCN(C6COC6)CC5)cc4)n3)cc2C#N)[C@H](F)CN1C(=O)[C@@H]1CCC(=O)N1 [Example 416]	IC50	64
COCCNc1ccc(Nc2ncnc(-c3ccc(O[C@H]4CCN(C(=O)[C@H](C)O)C[C@H]4F)c(C#N)c3)n2)cn1 [Example 543]	IC50	12
C[C@H]1CN(c2ccc(Nc3ncnc(-c4ccc(O[C@H]5CCN(C(=O)c6cnn[nH]6)C[C@H]5F)c(C#N)c4)n3)cc2)CCN1C1COC1 [Example 263]	IC50	3
N#Cc1cc(-c2ncnc(Nc3ccc(N4CCN(C5COC5)CC4)cc3)n2)ccc1O[C@H]1CCN(C(=O)c2ccn[nH]2)C[C@H]1F [Example 145]	IC50	2
Cc1cc(N2CCOCC2)ccc1Nc1ncnc(-c2ccc(OC3CCOCC3)c(C#N)c2)n1 [Example 109]	IC50	76
C[C@H](O)C(=O)N1CCC(Oc2ccc(-c3ncnc(Nc4ccc(N5CCN(C6COC6)CC5)cc4)n3)cc2C#N)CC1 [Example 15]	IC50	5
C[C@@H](N)C(=O)N1CC[C@H](Oc2ccc(-c3ncnc(Nc4ccc(N5CCN(C6COC6)CC5)cc4)n3)cc2C#N)[C@H](F)C1 [Example 433]	IC50	76
N#Cc1cc(-c2ncnc(Nc3ccc(N4CCN(C5CCOCC5)CC4)c(F)c3)n2)ccc1O[C@H]1CCN(C(=O)CO)C[C@H]1F [Example 307]	IC50	3

Ask | What does the record list as IC50 for N#Cc1cc(-c2ncnc(Nc3ccc(N4CCN(C5COC5)CC4)cc3)n2)ccc1N1CC2(CCOCC2)C1 [Example 211] ?
Reply | 6

Ask | Moving on to C[C@H](O)C(=O)N1CC[C@H](Oc2ccc(-c3ncnc(Nc4ccc(C(=O)N5CCN(C)CC5)cc4)n3)cc2C#N)[C@H](F)C1 [Example 120]
Reply | 4

Ask | Now the same for Cc1nc(C)c(C(=O)N2CC[C@H](Oc3ccc(-c4ncnc(Nc5ccc(N6CCN(C7COC7)CC6)cc5)n4)cc3C#N)[C@H](F)C2)[nH]1 [Example 345]
Reply | 10

Ask | Item: N#Cc1cc(-c2ncnc(Nc3ccc(N4CCN(C5COC5)CC4)cc3)n2)ccc1O[C@H]1CCN(C(=O)c2nc(=O)[nH][nH]2)C[C@H]1F [Example 437]
Reply | 4

Ask | Request: C[C@H](O)C(=O)N1CCC(Oc2cc(C#N)cc(-c3ncnc(Nc4ccc(N5CCN(C6COC6)CC5)cc4)n3)c2)CC1 [Example 134]
Reply | 520

Ask | // same read-out, input: N#Cc1cc(-c2ncnc(Nc3ccc(N4CCN(C5COC5)CC4)cc3)n2)ccc1O[C@H]1CCN(C(=O)Cc2cnn[nH]2)C[C@H]1F [Example 319]
Reply | 4

Ask | // query: N#Cc1cc(-c2ncnc(Nc3ccc(N4CCN(C5COC5)CC4)cc3)n2)ccc1O[C@H]1CCN(C(=O)[C@@H]2C[C@@H](O)CN2)C[C@H]1F [Example 589]
Reply | 18

Ask | C[C@H](O)C(=O)N1CCC(Oc2ccc(-c3ncnc(Nc4ccc(N5CCN(C6COC6)CC5)cc4)n3)cc2C#N)C(F)(F)C1 (stereo partly shown) [Example 154] , same question.
Reply | 1

Ask | How about this compound: N#Cc1cc(-c2ncnc(Nc3ccc(N4CCOCC4)cc3)n2)ccc1O[C@@H]1CCN(C(=O)CO)C1 [Example 103]
Reply | 6

Ask | Also N#Cc1cc(-c2ncnc(Nc3ccc(N4CCN(C5COC5)CC4)c(C(F)(F)F)c3)n2)ccc1O[C@H]1CCN(C(=O)CO)C[C@H]1F [Example 368] ?
Reply | 3

Ask | What do you have for C=CC(=O)Nc1ccc(Nc2ncnc(-c3ccc(OC4CCOCC4)c(C#N)c3)n2)cc1 [Example 39] ?
Reply | 6

Ask | Moving on to N#Cc1cc(-c2ncnc(Nc3ccc(N4CCN(C5COC5)CC4)cc3)n2)ccc1O[C@H]1CCN(C(=O)[C@H]2CCCCN2)C[C@H]1F [Example 129]
Reply | 334

Ask | Try C[C@H](Oc1ccc(-c2ncnc(Nc3ccc(N4CCN(C5COC5)CC4)cc3)n2)cc1C#N)C1CCOCC1 [Example 282] next.
Reply | 14

Ask | Also need N#Cc1cc(-c2ncnc(Nc3ccc(N4CCN(C5COC5)CC4)cc3)n2)ccc1O[C@H]1CCN(C(=O)C(O)CO)CC1(F)F (stereo partly shown) [Example 580] , thanks.
Reply | 2

Ask | Next compound up: C[C@H](O)C(=O)N1C[C@@H](C)[C@H](Oc2ccc(-c3ncnc(Nc4ccc(N5CCN(C6COC6)CC5)cc4)n3)cc2C#N)C(F)(F)C1 [Example 431]
Reply | 11
